src = the domain aggregation screens of Martell et al. (2025)

We begin with a simple list: items and their reported soluble fraction (log2).
- assayExplanation: soluble fraction after stress (log2 fold change); higher = more stays soluble; pooled small domains, quantitative proteomics
- conditionSet: stress: 50 degC
Kindly provide the number alone.

Field: example entries. Status: answers known.
HMDGLGLGAVILAQRKRQGWTQEDLAARIGVSKGAVSKWETGQSYPDLPLVPRLAALFHITVDELLDYR ... -0.662
HMTRQRQLIYNIIQRADDHPTAEMIYARAKAEMPSIAFGTVYRNLKLMVDAGEILHIPVAGEPDRYDK ... -1.98

INPUT: Sample HMIKNDIGKFIKLYRETHQWSQRELAEHLGVSQRNVSYYEKGERIPPADVLKKLSTLFDVPVDVLLGLK — what was its soluble fraction (log2)?
OUTPUT: -0.43

INPUT: Sample HMQVDENNINKRIDKYLSENTEYSRSTIQKMIDNGNITVNSKPTKSSYKLELNDIITIDNNFKE — what was its soluble fraction (log2)?
OUTPUT: 0.369

INPUT: Sample HMLPVQGEEVAPGLYKFDFPFLADKRVWEKTINAFKAEHPELKVNYIYTGPDELNSKKKTHVLVYVFTES — what was its soluble fraction (log2)?
OUTPUT: -0.0974

INPUT: Sample HMLPYKGTVAVSLAVLHKAVGVGTADMLKAVGTLRQGTEVTVTGRNGPFAQLKNGLWMKESFLE — what was its soluble fraction (log2)?
OUTPUT: -1.04

INPUT: Sample HMDWPDDETIARIYALIKSDISSQARKVMELRFSEGMPFARIAAAMGISETAVYRHLSHALTVIRQKLN — what was its soluble fraction (log2)?
OUTPUT: -2.06

INPUT: Sample HMDLFLVYQFIRRLATPFTEWKAHELGIIDDKGVQLKKRRDFTTREEKDAYGIFDIMITKLKRLIEKV — what was its soluble fraction (log2)?
OUTPUT: -0.255

INPUT: Sample HMHVYQSLVTDRVVPGGGYRTTEAILSTEAWRNTLLEQAKRELIGVRNKYASLTELAKVWTAIDTVT — what was its soluble fraction (log2)?
OUTPUT: -0.586

INPUT: Sample HMDLVESYDLKIIYTSELINLLIDSSRLEEALNLFKDLKDEIDDVENLGFSAKNNLDYMESKLLHLG — what was its soluble fraction (log2)?
OUTPUT: -1.83

INPUT: Sample HMKTKILAPIPGSIMVVDVKVGDTVKVGDRLVQLEAMKMENNITSEKAGKITAVLVTAGQKVLQNEVMIEL — what was its soluble fraction (log2)?
OUTPUT: -0.853

INPUT: Sample HMAILDTALDVLSMNLKDNYTSFQILRQAAIAGKIAFNLTEKNPLGGVIEVELTGDDLETWIEAATW — what was its soluble fraction (log2)?
OUTPUT: -0.115

INPUT: Sample HMNTVAGAISDLSFKVRGSEDIEKLNRLKALSIQAKLDVQGQEEAERLISELEAKYGSLGMTVDKVSGKIA — what was its soluble fraction (log2)?
OUTPUT: 0.158

INPUT: Sample HMTFGEMLQYTNRLKEILESNAPQSIKDRRLANLMTDLEQAYGIPILRDQEFEKENPFLMQLYRTIS — what was its soluble fraction (log2)?
OUTPUT: -2.06

INPUT: Sample HMGGHLAYGFSRRFGLLIDEQQGEPVIIARPDYSPVHYAEARRIVGQPAALRVVDEQAFNQLLQSQQESGA — what was its soluble fraction (log2)?
OUTPUT: -0.346

INPUT: Sample HMKIGIYPGTFDPITHGHTDIIRRSLRVFDKVVVAVAPNPSKHPLFTLTERLEMIRIVMKELEHVEVT — what was its soluble fraction (log2)?
OUTPUT: 0.0231

INPUT: Sample HMTMTIEITVNGKTKTLVAELSLADLLRDLGMTKGRIAVELNGHIVPRSQFSSKTISNLDSIEIVQ — what was its soluble fraction (log2)?
OUTPUT: -3.23

INPUT: Sample HMINLDGIGEKISRLRKEQGVTIRELSEYTGYSVGFLSNLETGKNSPTVESLQRVAEALRTDIIEILTK — what was its soluble fraction (log2)?
OUTPUT: -0.312

INPUT: Sample HMEVIDQLFKIALTLFDIDKGENNSISQDLVDKVIEQMKTTAPTFIKRELSEDEVKKLRFEIQNHFNV — what was its soluble fraction (log2)?
OUTPUT: -0.221

INPUT: Sample HMHGESISVPDLRGQKMERMPAFLADKHLQFKVIDSLFDLEKNPGTVLEQDPAPNSKVKEGRTIYLTVNAQ — what was its soluble fraction (log2)?
OUTPUT: -0.022

INPUT: Sample HMKSARQIAILEIIAEKSIETQEDLADALRLRGFQVTQATVSRDIKELRLVKALAPDGTYRYATAEK — what was its soluble fraction (log2)?
OUTPUT: -0.0157
